- protocol-summary: Evaluation of conversion rate to active form in buffer solution (Experimental Example 1)
- Type: physicochemical
- particulars: pH5.5, 1 hr
property-measured: Production rate of Alvocidib (%)
Give bare numbers, in %.

{"molecule": "CCOC(=O)O[C@@H]1CN(C)CC[C@@H]1c1c(O)cc(O)c2c(=O)cc(-c3ccccc3Cl)oc12 [Comparative Example 3, reference compound]", "property-measured": "Production rate of Alvocidib", "measured-number": 1.2}
{"molecule": "CNC(=O)O[C@@H]1CN(C)CC[C@@H]1c1c(O)cc(O)c2c(=O)cc(-c3ccccc3Cl)oc12 [Comparative Example 5, reference compound]", "property-measured": "Production rate of Alvocidib", "measured-number": 0.0}
{"molecule": "CCNC(=O)O[C@@H]1CN(C)CC[C@@H]1c1c(O)cc(O)c2c(=O)cc(-c3ccccc3Cl)oc12 [Comparative Example 4, reference compound]", "property-measured": "Production rate of Alvocidib", "measured-number": 1.8}

Now for a further molecule.
Production rate of Alvocidib for CNCCN(C)C(=O)Oc1cc(O)c2c(=O)cc(-c3ccccc3Cl)oc2c1[C@H]1CCN(C)C[C@H]1O [Comparative Example 14, reference compound] is 67.2

###

Please provide measured Residual rate for the entries that follow.
- protocol-summary: Evaluation of conversion rate to active form in buffer solution (Experimental Example 1)
- Type: physicochemical
- particulars: pH5.5, 2 hr
The number alone won't do; follow it with the unit.

The following molecules have reported results that may help.
{"molecule": "CCOC(=O)O[C@@H]1CN(C)CC[C@@H]1c1c(O)cc(O)c2c(=O)cc(-c3ccccc3Cl)oc12 [Comparative Example 3, reference compound]", "result": "89.9%"}
{"molecule": "CNC(=O)O[C@@H]1CN(C)CC[C@@H]1c1c(O)cc(O)c2c(=O)cc(-c3ccccc3Cl)oc12 [Comparative Example 5, reference compound]", "result": "94.0%"}
{"molecule": "CN1CC[C@H](c2c(O)cc(O)c3c(=O)cc(-c4ccccc4Cl)oc23)[C@H](OC(=O)[C@@H](N)CO)C1 [Comparative Example 9, reference compound]", "result": "78.4%"}
{"molecule": "CC(C)[C@H](N)C(=O)O[C@@H]1CN(C)CC[C@@H]1c1c(O)cc(O)c2c(=O)cc(-c3ccccc3Cl)oc12 [Comparative Example 10, reference compound]", "result": "89.9%"}
{"molecule": "CN1CC[C@H](c2c(O)cc(O)c3c(=O)cc(-c4ccccc4Cl)oc23)[C@H](OC(=O)CN)C1 [Comparative Example 8, reference compound]", "result": "73.5%"}

Kindly give each listed record's Residual rate.
1. CNC(=O)Oc1cc(O)c2c(=O)cc(-c3ccccc3Cl)oc2c1[C@H]1CCN(C)C[C@H]1O [Comparative Example 2, reference compound]
2. CNCCN(C)C(=O)Oc1cc(O)c2c(=O)cc(-c3ccccc3Cl)oc2c1[C@H]1CCN(C)C[C@H]1O [Comparative Example 14, reference compound]

-- reply
["0.6%", "8.7%"]

Batch lookup, Residual rate per entry.
1. C[C@H](N)C(=O)O[C@@H]1CN(C)CC[C@@H]1c1c(O)cc(O)c2c(=O)cc(-c3ccccc3Cl)oc12 [Comparative Example 7, reference compound]
2. CN1CC[C@H](c2c(OC(=O)N(C)CCN)cc(O)c3c(=O)cc(-c4ccccc4Cl)oc23)[C@H](O)C1 [Comparative Example 13, reference compound]
3. CCNC(=O)O[C@@H]1CN(C)CC[C@@H]1c1c(O)cc(O)c2c(=O)cc(-c3ccccc3Cl)oc12 [Comparative Example 4, reference compound]

-- reply
75.9%
73.9%
97.8%

###

- protocol-summary: Evaluation of conversion rate to active form in buffer solution (Experimental Example 1)
- Type: physicochemical
- particulars: pH7.4, 2 hr, 37° C., 25 umol/L in buffer solution
Give Production rate of Alvocidib for every item shown.
One number for each entry, in %.

Below are worked cases with known answers.
{"molecule": "CCN(C[C@@H]1CCCCN1)C(=O)Oc1cc(O)c2c(=O)cc(-c3ccccc3Cl)oc2c1[C@H]1CCN(C)C[C@H]1O [Example 1, ditrifluoroacetate]", "quantity-unit": "%", "Production rate of Alvocidib": 87.6}
{"molecule": "CN1CC[C@H](c2c(OC(=O)N(CCF)CC3CCCCN3)cc(O)c3c(=O)cc(-c4ccccc4Cl)oc23)[C@H](O)C1 (stereo partly shown) [Example 11]", "quantity-unit": "%", "Production rate of Alvocidib": 67.9}

Lab note: each molecule below needs its Production rate of Alvocidib filled in.
1. CCNC(=O)Oc1cc(O)c2c(=O)cc(-c3ccccc3Cl)oc2c1[C@H]1CCN(C)C[C@H]1O [Comparative Example 1, reference compound]
2. CCCN(C[C@H]1CCCCN1)C(=O)Oc1cc(O)c2c(=O)cc(-c3ccccc3Cl)oc2c1[C@H]1CCN(C)C[C@H]1O [Example 6]
3. CCN(CCC1CCCCN1)C(=O)Oc1cc(O)c2c(=O)cc(-c3ccccc3Cl)oc2c1[C@H]1CCN(C)C[C@H]1O (stereo partly shown) [Example 16]
4. CN1CC[C@H](c2c(OC(=O)N(C)C[C@@H]3CCCCN3)cc(O)c3c(=O)cc(-c4ccccc4Cl)oc23)[C@H](O)C1 [Example 3]

-- reply
[99.1, 73.6, 82.1, 80.4]

###

- protocol-summary: Evaluation of conversion rate to active form in buffer solution (Experimental Example 1)
- Format: physicochemical
- particulars: pH5.5, 2 hr, 37° C., 25 umol/L in buffer solution
Assignment: determine reported Residual rate for the given compounds.
Numbers only, in %.

Worked examples, 3 compounds total:
{"compound": "CN1CC[C@H](c2c(OC(=O)N(C)C[C@H]3CCCCN3)cc(O)c3c(=O)cc(-c4ccccc4Cl)oc23)[C@H](O)C1", "quantity-unit": "%", "measured-number": 91.4}
{"compound": "CN1CC[C@H](c2c(OC(=O)N(CCF)CC3CCCCN3)cc(O)c3c(=O)cc(-c4ccccc4Cl)oc23)[C@H](O)C1 (stereo partly shown)", "quantity-unit": "%", "measured-number": 75.0}
{"compound": "CCCN(CC1CCCCN1)C(=O)Oc1cc(O)c2c(=O)cc(-c3ccccc3Cl)oc2c1[C@H]1CCN(C)C[C@H]1O (stereo partly shown)", "quantity-unit": "%", "measured-number": 92.5}

API: the following record is the query input.
Note to self: Residual rate recorded for `CCN(C[C@H]1CCCCN1)C(=O)Oc1cc(O)c2c(=O)cc(-c3ccccc3Cl)oc2c1[C@H]1CCN(C)C[C@H]1O` was 92.5

###

- protocol-summary: Evaluation of conversion rate to active form in buffer solution (Experimental Example 1)
- Assay type: physicochemical
- particulars: pH5.5, 0 hr
Provide the recorded Residual rate for the entries that follow.
Give bare numbers, in %.

Examples with their reported Residual rate follow.
{"molecule": "CCNC(=O)O[C@@H]1CN(C)CC[C@@H]1c1c(O)cc(O)c2c(=O)cc(-c3ccccc3Cl)oc12 [Comparative Example 4, reference compound]", "Residual rate / %": 97.8}
{"molecule": "C[C@H](N)C(=O)O[C@@H]1CN(C)CC[C@@H]1c1c(O)cc(O)c2c(=O)cc(-c3ccccc3Cl)oc12 [Comparative Example 7, reference compound]", "Residual rate / %": 97.0}
{"molecule": "CNCCN(C)C(=O)Oc1cc(O)c2c(=O)cc(-c3ccccc3Cl)oc2c1[C@H]1CCN(C)C[C@H]1O [Comparative Example 14, reference compound]", "Residual rate / %": 97.2}
{"molecule": "CN1CC[C@H](c2c(OC(=O)N(C)CCN)cc(O)c3c(=O)cc(-c4ccccc4Cl)oc23)[C@H](O)C1 [Comparative Example 13, reference compound]", "Residual rate / %": 98.3}
{"molecule": "CCOC(=O)O[C@@H]1CN(C)CC[C@@H]1c1c(O)cc(O)c2c(=O)cc(-c3ccccc3Cl)oc12 [Comparative Example 3, reference compound]", "Residual rate / %": 90.9}

Measured Residual rate of CN1CC[C@H](c2c(O)cc(O)c3c(=O)cc(-c4ccccc4Cl)oc23)[C@H](OC(=O)CN)C1 [Comparative Example 8, reference compound] : 83.4

###

- protocol-summary: Evaluation of conversion rate to active form in buffer solution (Experimental Example 1)
- Assay type: physicochemical
- particulars: pH5.5, 0 hr, 37° C., 25 umol/L in buffer solution
Where a name gives a salt, the structure may show the parent alone.
Record form. Attribute: Residual rate. Fill in for each entry.
Answers are plain numbers, in %.

For orientation, consider the following solved cases.
{"molecule": "CN1CC[C@H](c2c(OC(=O)N(C)CC3CCCCN3)cc(O)c3c(=O)cc(-c4ccccc4Cl)oc23)[C@H](O)C1 (stereo partly shown)", "quantity-unit": "%", "measured-number": 95.9}
{"molecule": "CC(C)N(CC1CCCCN1)C(=O)Oc1cc(O)c2c(=O)cc(-c3ccccc3Cl)oc2c1[C@H]1CCN(C)C[C@H]1O (stereo partly shown)", "quantity-unit": "%", "measured-number": 90.7}
{"molecule": "CCN(CC1CCCCN1)C(=O)Oc1cc(O)c2c(=O)cc(-c3ccccc3Cl)oc2c1[C@H]1CCN(C)C[C@H]1O (stereo partly shown) [Example 7, dihydrochloride]", "quantity-unit": "%", "measured-number": 100.0}

Value of Residual rate reported for the molecule CCCN(CC1CCCCN1)C(=O)Oc1cc(O)c2c(=O)cc(-c3ccccc3Cl)oc2c1[C@H]1CCN(C)C[C@H]1O (stereo partly shown) is 96.2
